Taken from ChEMBL document CHEMBL1201862.

# Tested on: HOP-62
# assay explanation: NCI tumour cell line growth inhibition, 48 h
Calls of active or inactive are those of the source. No stated cut-off is given here; in the data, active = GI50 up to about 1.1 µM and inactive = higher.
endpoint: GI50

(Q) Tell me its GI50 given CC1OC(OC2C(O)COC(OC3C(C)OC(OC4C(OC(=O)[C@]56CCC(C)(C)C[C@@H]5C5=CCC7[C@@]8(C)C[C@H](O)[C@H](OC9OC(CO)C(O)C(OC%10OC(CO)C(O)C(O)C%10O)C9O)[C@@](C)(CO)[C@@H]8CC[C@@]7(C)[C@]5(C)CC6)OCC(O)C4O)C(O)C3OC3OCC(O)C(O)C3O)C2O)C(O)C(O)C1O (stereo partly drawn) as the entry.
(A) 6.76 µM (inactive)
